Please provide measured melting point for the entries that follow.

Would you please look over these solved cases?
Cc1cc2c(cc1F)c(C#N)c(-c1ccc(S(=O)(=O)N[C@@H](C)C(F)(F)F)cn1)n2-c1nncs1    232 to 240 °C
Cc1cc2c(cc1F)c(C#N)c(-c1ccc(S(=O)(=O)N[C@@H](C)C(F)(F)F)cn1)n2-c1cncc(F)c1    199 to 204 °C
Cc1cc2c(cc1F)c(C#N)c(-c1ccc(S(=O)(=O)N[C@@H](C)C(F)(F)F)cn1)n2-c1cccnc1    217 to 221 °C
CCc1cc2c(cc1F)c(C#N)c(-c1ccc(S(=O)(=O)NC3(C(F)(F)F)CC3)cn1)n2C1CCCC1    198 to 199 °C
CCc1cc2c(cc1F)c(C#N)c(-c1ccc(S(=O)(=O)N[C@@H](C)C(F)(F)F)cn1)n2-c1ccnc(C)n1    138 to 146 °C
CCc1ccc2c(c1)c(C#N)c(-c1ccc(S(=O)(=O)NC(CF)CF)cn1)n2C1CCCC1    167 to 168 °C

Q: I am curious: what melting point value has been reported for C[C@@H](NS(=O)(=O)c1ccc(-c2c(C#N)c3ccc(F)cc3n2CC2CC2)nc1)C(F)(F)F ?
Result: 173 to 175 °C
